System: Aspergillus niger
Assay: Antifungal activity against Aspergillus niger ATCC 16404 after 24 to 48 hrs by paper disk diffusion assay
Type: functional
Measured Attribute: diameter of the inhibition zone (DIZ) (mm)
Report as a plain number; the unit mm is understood.

Example cases with answers are listed next.
CCCCCCCCCCCCNC(=O)CO[C@@H]1O[C@H](COC(C)=O)C=C(OC(C)=O)C1=O : 40
C[C@@H]1C[C@@H]([C@H](O)CC2CC(=O)NC(=O)C2)C(=O)[C@@H](C)C1 [CYCLOHEXIMIDE] : 43
CCCCCCCCCCCCNC(=O)CO[C@H]1O[C@H](COC(C)=O)C=C(OC(C)=O)C1=O : 12

Fetch value of diameter of the inhibition zone (DIZ) on Aspergillus niger for `C[C@@H]1[C@H](O)[C@@H](C)/C=C/C=C/C=C/C=C/C=C/C=C/C=C/[C@H](O[C@@H]2O[C@H](C)[C@@H](O)[C@H](N)[C@@H]2O)C[C@@H]2O[C@](O)(C[C@@H](O)C[C@@H](O)[C@H](O)CC[C@@H](O)C[C@@H](O)CC(=O)O[C@H]1C)C[C@H](O)[C@H]2C(=O)O` . 22
